value-kind: melting point (°C)

INSERT INTO assay_data (molecule, value_kind, result_number) VALUES
  ('CCOc1cccc(COc2ccc3cc(C(=O)NC(Cc4ccccc4)C(=O)O)ccc3c2)c1 (stereo not shown)', 'melting point', 145),
  ('O=C(N[C@@H](Cc1ccccc1)C(=O)O)c1ccc2cc(OCc3ccccc3)ccc2c1 (single isomer, unassigned)', 'melting point', 230),
  ('O=C(NC(Cc1ccccc1)C(=O)O)c1ccc2cc(OCc3ccc(F)cc3)ccc2c1 (stereo not shown)', 'melting point', 197),
  ('O=C(NC(Cc1ccccc1)C(=O)O)c1ccc2cc(OCc3ccc(Cl)c(Cl)c3)ccc2c1 (stereo not shown)', 'melting point', 202),
  ('O=C(NC(Cc1ccccc1)C(=O)O)c1ccc2cc(OCc3ccc(F)cc3F)ccc2c1 (stereo not shown)', 'melting point', 199);

---

tested-target: IP receptor (Homo sapiens, UniProt P43119)
Construct: HEL cells were collected with centrifugation and washed with cAMP assay buffer
Sequence (P43119 whole entry): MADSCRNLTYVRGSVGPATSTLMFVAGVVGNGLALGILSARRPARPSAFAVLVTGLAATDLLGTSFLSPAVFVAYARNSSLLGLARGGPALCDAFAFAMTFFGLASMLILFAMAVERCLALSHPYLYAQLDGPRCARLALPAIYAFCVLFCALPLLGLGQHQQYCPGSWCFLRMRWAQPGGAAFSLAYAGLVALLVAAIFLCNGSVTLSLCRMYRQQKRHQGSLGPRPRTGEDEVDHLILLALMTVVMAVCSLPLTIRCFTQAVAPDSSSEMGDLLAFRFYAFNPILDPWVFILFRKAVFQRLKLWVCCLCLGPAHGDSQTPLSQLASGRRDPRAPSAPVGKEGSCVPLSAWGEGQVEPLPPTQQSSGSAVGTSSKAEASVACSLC
protocol-text: Iloprost-induced cAMP production assay in HEL cells (Assay 2)
details: read-out: Activity grade assay 2
Entries and their IC50
value-kind: IC50

INSERT INTO measurements (compound, value_kind, result) VALUES
  ('O=C(NC(Cc1ccccc1)C(=O)O)c1ccc2cc(OCc3c(Cl)cccc3Cl)ccc2c1 (centres unmarked) [Example 1-41]', 'IC50', '100 to 1000 nM'),
  ('O=C(NC(Cc1ccccc1)C(=O)O)c1ccc2cc(OCc3cccc(OC(F)(F)F)c3)ccc2c1 (centres unmarked) [Example 1-36]', 'IC50', '100 to 1000 nM'),
  ('O=C(NC(Cc1ccccc1)C(=O)O)c1ccc2cc(OCCn3ccnc3)ccc2c1 (centres unmarked) [Example 1-86]', 'IC50', '100 to 1000 nM'),
  ('CC(Oc1ccc2cc(C(=O)NC(Cc3ccccc3)C(=O)O)ccc2c1)c1ccccc1 (centres unmarked) [Example 1-60]', 'IC50', '100 to 1000 nM'),
  ('O=C(NC(Cc1ccccc1)C(=O)O)c1ccc2cc(OCc3ccc(F)cc3)ccc2c1 (centres unmarked) [Example 1-5]', 'IC50', '< 100 nM'),
  ('O=C(NC(Cc1ccccc1)C(=O)O)c1ccc2cc(OCCCc3ccccc3)ccc2c1 (centres unmarked) [Example 1-64]', 'IC50', '100 to 1000 nM'),
  ('COc1cccc(COc2ccc3cc(C(=O)NC(Cc4ccccc4)C(=O)O)ccc3c2)c1 (centres unmarked) [Example 1-30]', 'IC50', '< 100 nM'),
  ('O=C(NC(Cc1ccccc1)C(=O)O)c1ccc2cc(OCc3ccc[n+]([O-])c3)ccc2c1 (centres unmarked) [Example 1-87]', 'IC50', '> 1000 nM');

---

tested-target: IP receptor (Homo sapiens)
Construct: HEL cells were collected with centrifugation and washed with cAMP assay buffer
protocol-text: Iloprost-induced cAMP production assay in HEL cells (Assay 2)
details: read-out: Activity grade assay 2
pIC50: −log10 of the molar value.
Entries and their pIC50
value-kind: pIC50

INSERT INTO assay_data (compound, result) VALUES
  ('O=C(NC(Cc1ccccc1F)C(=O)O)c1ccc2cc(OCc3ccccc3)ccc2c1 (stereo not shown)', '> 7.00'),
  ('O=C(NC(Cc1ccccc1)C(=O)O)c1ccc2cc(OCc3cccc(F)c3)ccc2c1 (stereo not shown)', '> 7.00'),
  ('O=C(NC(Cc1cccs1)C(=O)O)c1ccc2cc(OCc3ccccc3)ccc2c1 (stereo not shown)', '> 7.00'),
  ('O=C(NC(Cc1ccccc1)C(=O)O)c1ccc2cc(OCc3cccc4ccccc34)ccc2c1 (stereo not shown)', '6.00 to 7.00');
